These measurements were taken from patent US20030068675.

Molecular target: ZFP SBS#558 (synthetic)
Sequence (chain, as listed by the source): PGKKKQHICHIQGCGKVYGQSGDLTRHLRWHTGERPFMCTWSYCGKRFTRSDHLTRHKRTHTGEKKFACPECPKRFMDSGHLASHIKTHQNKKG
Test: EMSA
Details: tags: MBP fusion
pKd: −log10 of the molar value.
QUANTITY MEASURED: pKd

BINDER	OBSERVED VALUE
TGCGGGGCA (dsDNA) DNA 1: TGCGGGGCA DNA 2: TGCCCCGCA	7.68
